Answer each item with its documented inhibition at 100 µM.
Test system: Trypanosoma cruzi
Experiment: Compound was evaluated for its percent inhibition of growth of Trypanosoma cruzi at 100 uM/L
Assay type: functional
# number only, unit % dropped from output

Lab entry: Trypanosoma cruzi assay, compound COC(=O)OC(C)CC/C=C(\C)CCC=C(C)C (stereo not drawn) , inhibition at 100 µM = 97.5

Measured inhibition at 100 µM for this entry CCSC(=O)OC(C)CC/C=C(\C)CC/C=C(/C)CC (stereo not drawn) on Trypanosoma cruzi: 79.4

Known value: Trypanosoma cruzi inhibition at 100 µM of the compound "CCSC(=O)OC/C=C(\C)CC/C=C(\C)CCC=C(C)C" equals 94.2

====

Tested on: Trypanosoma cruzi
Assay: Compound was evaluated for its percent inhibition of growth of Trypanosoma cruzi at 100 uM/L
Type: functional
QUANTITY: inhibition at 100 µM
Your answer should be a number followed by the unit of measure.

The value of inhibition at 100 µM measured for the compound CC(C)=CCC/C(C)=C/CCC(C)OC(=O)OCC(C)C (configuration not stated) turned out to be 89.6%

Looking up CC/C(C)=C\CC/C(C)=C/CCC(C)OC(=O)OCC(C)C (configuration not stated) , I found its inhibition at 100 µM recorded as 68%

Short answer for "COC(=O)OCCC/C=C(\C)CCC=C(C)C" : inhibition at 100 µM was 56%

Record summary for "C=CCOc1ccc(Oc2ccccc2)cc1" : reported inhibition at 100 µM = 95.4%

Given item COC(=O)OC/C=C(\C)CC/C=C(\C)CCC1OC1(C)C (configuration not stated) , the value recorded as its inhibition at 100 µM is 62.8%

Per the record, C/C(=C\CCC(C)OC(=O)OCC(C)C)CCC1OC1(C)C (configuration not stated) has inhibition at 100 µM of 68%

What the record says about c1ccc(Oc2ccc(OCCOC3CCCCO3)cc2)cc1 (configuration not stated) : inhibition at 100 µM is 90.6%

The value of inhibition at 100 µM measured for the compound COC(C)(C)CCCC(C)C/C=C/C(C)=C/C(=O)OC(C)C (configuration not stated) turned out to be 92.5%

Lab book: inhibition at 100 µM of CCSC(=O)OC/C=C(\C)CC/C=C(\C)CCC1OC1(C)C (configuration not stated) noted as 99%

inhibition at 100 µM for CC(C)(C)OC(=O)CC(O)COc1ccc(Oc2ccccc2)cc1 (configuration not stated) is 98.8%

inhibition at 100 µM reported for this compound C/C=C\CC/C(C)=C/CCC(C)OC(=O)OCC(C)C (configuration not stated) : 75.4%

Record "CC(C)=CCC/C(C)=C/CCCOC(=O)OCC(C)C" , field inhibition at 100 µM: 94%
